Exercise: state measured Growth Rate for each of the compounds provided.
- Test system: Fibroblast
- Experiment description: Incucyte cell viability with human fibroblast; note: filed as whole numbers so only -1 and 0 and 1 occur
- Format: toxicity, cell-based
- Experimental conditions: 6 h, 10 µM, compound concentration 10 uM, replicate number 1, timepoint 6 hours
Give bare numbers.

See these solved cases before continuing.
[[record]]
compound = "O[C@H]1CC[C@H](Nc2ncc3nc(Nc4c(F)cc(F)cc4F)n([C@H]4CCOC4)c3n2)CC1 [TANZISERTIB]"
reported_result = 0

[[record]]
compound = "O=C(NCc1ncc(C(F)(F)F)cc1Cl)c1ccc2c(c1)C1(CCS(=O)(=O)CC1)[C@@H](C1CC1)N2S(=O)(=O)c1ccc(F)cc1 [BAY-786]"
reported_result = 1

[[record]]
compound = "COc1ccc(-c2ccc3cc(C(=O)O)ccc3c2)cc1C12CC3CC(CC(C3)C1)C2"
reported_result = 0

[[record]]
compound = "COc1ccc(S(=O)(=O)N2c3ccc(Cl)cc3[C@](O)(c3ccccc3Cl)[C@@H]2C(=O)N2CCC[C@H]2C(N)=O)cc1OC [RELCOVAPTAN]"
reported_result = 0

[[record]]
compound = "CNC(=O)Nc1ccc2c(c1)[C@@]1(CC2)OC(=O)N(CC(=O)N(Cc2ccc(F)cc2)[C@@H](C)C(F)(F)F)C1=O [A-486]"
reported_result = 0

[[record]]
compound = "Cc1cc(C)c(-n2ccn3nc(-c4cccnc4)cc23)cc1NC(=O)c1cc(C#N)cc(S(F)(F)(F)(F)F)c1 [BAY-826]"
reported_result = 1

[[record]]
compound = "Cc1ccc2c(c1)c1c(n2CCc2ccc(C)nc2)CCN(C)C1 [LATREPIRDINE]"
reported_result = 1

[[record]]
compound = "Cn1c(CNc2cccc(C(=O)NCc3ccccc3C(F)(F)F)c2)nnc1-c1ccncc1"
reported_result = 0

[[record]]
compound = "O=C(O)C1CN(Cc2ccc(OCc3ccc(Cl)c(Cl)c3)cc2)C1"
reported_result = 0

[[record]]
compound = "CN1CCN(Cc2cc(NC(=O)c3ccc4c(c3)CN(c3ccccc3)CC4)cc(C(F)(F)F)c2)CC1"
reported_result = 0


Please look at the items below and tell me Growth Rate for each one, in order.
1. Cl.Clc1cccc(COc2cncc(N3CCNCC3)n2)c1
2. Cc1cc(-n2nc(Cc3cc(F)cc(C(F)(F)F)c3)nc2C)ccc1C(N)=O [TP-024]
3. CC(C)c1noc(N2CCC(COc3ccc(-c4ccc(S(C)(=O)=O)cc4)nc3)CC2)n1 [GSK-1292263]
4. CC#CC(=O)N1CCC[C@H]1c1nc(-c2ccc(C(=O)Nc3ccccn3)cc2)c2c(N)nccn12 [ACALABRUTINIB]

1. 1
2. 1
3. 0
4. 1

Please look at the items below and tell me Growth Rate for each one, in order.
1. CCOC(=O)CCNc1cc(N2CCc3ccccc3CC2)nc(-c2cccnc2)n1
2. CC(C)OC(=O)N1CCC(Oc2ncnc3c2cnn3-c2ccc(S(C)(=O)=O)cc2F)CC1
3. CNC(=O)Nc1ccc(-c2nc(N3CC4CCC(C3)O4)c3cnn(C4CCC5(CC4)OCCO5)c3n2)cc1
4. O=C(Nc1ccc(Oc2ccc(F)cc2)cc1)N1CCc2ncccc2[C@H]1c1ccc(F)cc1 [BAY-897]
5. O=S1(=O)c2cccc3cccc(c23)N1CCCN1CCN(c2ccc(F)cc2)CC1 [FANANSERIN]

[1, 1, 0, 1, 1]

Please look at the items below and tell me Growth Rate for each one, in order.
1. O=C1CCc2cc(Nc3cc(OC4CCOCC4)c([N+](=O)[O-])cc3Cl)ccc2N1
2. O=c1cc(N2CCOCC2)oc2c(-c3cccc4c3sc3ccccc34)cccc12

0
0

# lookup: Growth Rate of Cc1cnc(-c2cc(Cl)ccc2F)cc1-n1c(=O)n(CC(N)=O)c2ccccc21 [Al11]
1
